molecular target: Potassium voltage-gated channel subfamily KQT member 1 (Homo sapiens); assay: KCNQ1 potassium channel potentiators, confirmation, FluxOR thallium flux, CHO cells, duplicates (AID 493007); settings: KCNQ1 cell line, FluxOR thallium flux fluorescence, at 10 µM; stronger effect = higher value, % of reference activator effect, buffer zero;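 on potentiation: 0% = buffer-only wells and 100% = R-L3 activator control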
The source made the active and inactive calls.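 How the source made its calls: active means potentiation averaged over duplicate wells exceeding buffer-only control mean by more than 3 SD; inactive means the rest.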
metric: potentiation

Below, each entry is followed by its recorded potentiation result.
O=C(Cn1c(=O)oc2ccccc21)N1CCN(c2ccc(N3CCOCC3)nn2)CC1    inactive
O=C(CCN1CCc2ccccc2CC1)c1ccc2c(c1)OCCO2    38% (active)
O=C(NC(=S)Nc1cc(C(F)(F)F)ccc1Cl)c1ccccc1    inactive
Cc1ccc(C2C(C#N)=C(N)OC3=C2C(=O)CC(C)(C)C3)s1 (stereo not given)    inactive
CCOC(=O)c1ccc(Oc2nc(NC(C)(C)C)nc(N(C)C)n2)cc1    inactive
COC(=O)C1=C(C)NC(C)=C(C(=O)OC)C1c1ccccc1[N+](=O)[O-]    inactive
CC(C)CSC1=NSC2=NC(=O)/C(=C\c3cccs3)C(=N)N12    inactive
CCCOc1ccccc1NS(=O)(=O)c1ccc2[nH]c(=O)[nH]c2c1    inactive

Ask | Note potentiation for the compound shown: Cc1nc(NC(=S)NC(=O)c2ccccc2)sc1C
Reply | inactive

Ask | Note potentiation for the compound shown: CC(C)(C)NCC(O)CON=C1c2ccccc2-c2ccccc21 (stereo not given)
Reply | inactive

Ask | Note potentiation for the compound shown: O=C(NNC(=S)NC(=O)c1ccco1)c1ccc(F)cc1
Reply | 69% (active)

Ask | Note potentiation for the compound shown: Cc1cc(NC(=O)CSc2cn(CCNC(=O)c3ccc(F)cc3)c3ccccc23)no1
Reply | inactive

Ask | Note potentiation for the compound shown: COC(=O)c1c(N2C(=O)CC(Sc3ncccc3C(=O)O)C2=O)sc(C)c1C (stereo not given)
Reply | inactive

Ask | Note potentiation for the compound shown: Cc1ccccc1OCC(=O)N=Nc1c(O)n(C)c2ccccc12
Reply | 42% (active)

Ask | Note potentiation for the compound shown: Cc1ccc(C)c(/C=C/C(=O)c2ccccc(=O)c2O)c1
Reply | 118% (active)

Ask | Note potentiation for the compound shown: O=C(NC(=S)Nc1ccc(N2CCOCC2)c(Cl)c1)c1sc2ccccc2c1Cl
Reply | 35.5% (active)

Ask | Note potentiation for the compound shown: CCN1CCN(C(c2ccccn2)c2c(NC(=O)c3ccccc3)sc(C)c2C)CC1 (stereo not given)
Reply | inactive

Ask | Note potentiation for the compound shown: Cc1ccccc1C(=O)NC1CC(C)(C)NC(C)(C)C1
Reply | inactive
